System: MDA-MB-231 cells
Experiment: Vacuolation of MDA-MB-231 cells caused by inhibition of compounds on PIKfyve (microscopy); further: key: '+' represents the degree of vacuolation; ++: more '+' indicates more obvious vacuolation; +++: more '+' indicates more obvious vacuolation; ++++: more '+' indicates more obvious vacuolation; '−' represents no vacuolation
Format: cell-based
Details: MDA-MB-231 cells, 10 μM, 24 h
reported-endpoint: degree of vacuolation, 10 μM, 24 h

Previously resolved entries follow.
Query `Cc1ccc(C(=O)Nc2cccc(NS(C)(=O)=O)c2)cc1Nc1nc(-c2cccnc2)c2[nH]ccc2n1` yields degree of vacuolation, 10 μM, 24 h of +++

Query `Cc1ccc(NC(=O)c2cccc(C(F)(F)F)c2)cc1Nc1cc(-c2ccncc2)nc2c1ccn2C` yields degree of vacuolation, 10 μM, 24 h of ++

Query `Cc1ccc(C(=O)Nc2cccc(C(F)(F)F)c2)cc1Nc1nc(-c2cccnc2)nc2ccn(C)c12` yields degree of vacuolation, 10 μM, 24 h of ++

Query `c1cncc(-c2nc(Nc3cc(N4CCOCC4)cc(N4CCOCC4)c3)nc3cc[nH]c23)c1` yields degree of vacuolation, 10 μM, 24 h of −

Query `Cc1ccc(NC(=O)c2cccc(C(F)(F)F)c2)cc1Nc1nc(-c2cccnc2)cn2ccnc12` yields degree of vacuolation, 10 μM, 24 h of −

Query `O=C(Nc1cccc(C(F)(F)F)c1)c1cccc(Nc2cc(-c3cccnc3)nc3sccc23)c1` yields degree of vacuolation, 10 μM, 24 h of +

Query `COc1ccc(Br)cc1NC(=O)Nc1cccc(-c2nc(NCc3cccnc3)c3c(ccn3C)n2)c1` yields degree of vacuolation, 10 μM, 24 h of −

---
Query Cc1ccc(C(=O)Nc2cccc(C(F)(F)F)c2)cc1Nc1nc(-c2cccnc2)cn2ccnc12 [VI-a-6] yields degree of vacuolation, 10 μM, 24 h of −

* * *

Tested on: MDA-MB-231 cells
Test: Vacuolation of MDA-MB-231 cells caused by inhibition of compounds on PIKfyve (microscopy); further: key: '+' represents the degree of vacuolation; ++: more '+' indicates more obvious vacuolation; +++: more '+' indicates more obvious vacuolation; ++++: more '+' indicates more obvious vacuolation; '−' represents no vacuolation
Assay type: cell-based
Conditions: MDA-MB-231 cells, 1 μM, 48 h
reported-endpoint: degree of vacuolation, 1 μM, 48 h

Previously resolved entries follow.
Query `Cc1ccc(C(=O)Nc2ccc(CN3CCN(C)CC3)c(C(F)(F)F)c2)cc1Nc1nc(-c2ccncc2)nc2c1ncn2C` yields degree of vacuolation, 1 μM, 48 h of −

Query `Cc1ccc(C(=O)Nc2cccc(C(F)(F)F)c2)cc1Nc1nc(-c2cccnc2)nc2ccn(C)c12` yields degree of vacuolation, 1 μM, 48 h of +

Query `Nc1ccc(NC(=O)c2cccc(Nc3nc(-c4cccnc4)c4[nH]ccc4n3)c2)cc1` yields degree of vacuolation, 1 μM, 48 h of +

Query `Cc1ccc(C(=O)Nc2cccc(C(F)(F)F)c2)cc1Nc1nc(-c2ccncc2)nc2ccn(C)c12` yields degree of vacuolation, 1 μM, 48 h of ++

Query `Cc1ccc(NC(=O)c2cccc(C(F)(F)F)c2)cc1Nc1nc(-c2cccnc2)nc2c1cnn2C` yields degree of vacuolation, 1 μM, 48 h of +

Query `COc1ccc(C(=O)Nc2cccc(C(F)(F)F)c2)cc1Nc1nc(-c2cccnc2)c2[nH]ccc2n1` yields degree of vacuolation, 1 μM, 48 h of −

Query `Cc1cn(-c2cc(NC(=O)c3ccc(C)c(Nc4nc(-c5cccnc5)nc5cc[nH]c45)c3)cc(C(F)(F)F)c2)cn1` yields degree of vacuolation, 1 μM, 48 h of −

Query `Cc1ccc(C(=O)Nc2ccc(CN3CCN(C)CC3)c(C(F)(F)F)c2)cc1Nc1nc(-c2cccnc2)c2[nH]ccc2n1` yields degree of vacuolation, 1 μM, 48 h of −

Alright, here's another compound for you.
Query `Cc1ccc(C(=O)Nc2ccc(CN3CCN(C)CC3)c(C(F)(F)F)c2)cc1Nc1nc(-c2cccnc2)nc2ccn(C)c12` yields degree of vacuolation, 1 μM, 48 h of +
